# Measured On: Human Recombinant Matriptase 2 (Homo sapiens)
# Construct: purchased Enzo Life Sciences (an in-house preparation was also used) ALX-201-752-1
# Sequence (Q8IU80 whole entry): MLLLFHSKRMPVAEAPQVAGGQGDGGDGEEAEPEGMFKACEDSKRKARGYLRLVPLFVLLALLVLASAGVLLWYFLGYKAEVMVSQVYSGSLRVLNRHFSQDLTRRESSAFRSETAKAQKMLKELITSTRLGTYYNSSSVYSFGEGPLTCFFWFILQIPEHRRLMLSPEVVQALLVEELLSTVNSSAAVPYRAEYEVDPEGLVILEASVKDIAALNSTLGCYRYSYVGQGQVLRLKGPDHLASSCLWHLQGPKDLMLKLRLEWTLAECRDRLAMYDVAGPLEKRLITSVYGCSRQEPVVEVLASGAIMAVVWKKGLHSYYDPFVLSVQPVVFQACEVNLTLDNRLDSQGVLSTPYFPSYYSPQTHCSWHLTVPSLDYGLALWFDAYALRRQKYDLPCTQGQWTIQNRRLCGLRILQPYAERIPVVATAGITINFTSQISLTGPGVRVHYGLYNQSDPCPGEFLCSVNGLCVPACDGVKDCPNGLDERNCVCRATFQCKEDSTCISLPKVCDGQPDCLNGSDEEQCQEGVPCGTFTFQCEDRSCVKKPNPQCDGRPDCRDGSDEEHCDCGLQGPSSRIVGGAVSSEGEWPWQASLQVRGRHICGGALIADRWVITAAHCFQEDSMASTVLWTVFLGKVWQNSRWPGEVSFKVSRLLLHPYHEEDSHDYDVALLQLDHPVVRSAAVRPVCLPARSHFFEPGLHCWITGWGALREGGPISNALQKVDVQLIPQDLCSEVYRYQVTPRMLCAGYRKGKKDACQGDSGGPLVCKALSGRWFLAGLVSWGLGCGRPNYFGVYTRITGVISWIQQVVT
# Protocol Summary: Matriptase 2 fluorescence based inhibition assay, Method A (100 mM TRIS pH 9, 1 mg/mL BSA)
# Type: biochemical
# Particulars: at 1 uM; Assay Used = A; read-out: Mar-2 % inhibition at 1 uM
# Description: Test compounds were evaluated for their potential to inhibit Human Recombinant Matriptase 2 (in-house and commercial protein from Enzo Life Sciences—cat log -ALX-201-752-1) using fluorescence based assay. […] The enzyme and compound was preincubated for 30 mins, plate was read 60 mins after substrate addition at wavelength Ex: 360/Em: 480 nm. […]
Measured Endpoint: inhibition at 1 µM

Data request: Return reported inhibition at 1 µM. Input molecule: N=C(N)c1ccc2cc(C(=O)N3CC[C@H](F)C3)n(Cc3ccc(C(F)(F)F)cc3)c2c1
Data returned: 0 to 25%

Data request: Fill in reported inhibition at 1 µM for this entry: N=C(N)c1ccc2cc(C(=O)NC3CCC(N)CC3)n(Cc3ccc(Oc4ccc(F)cc4)cc3)c2c1 (stereo not drawn)
Data returned: 50 to 75%

Data request: Note inhibition at 1 µM for the molecule shown: N=C(N)c1ccc2cc(C(=O)N3CCCC(F)(F)C3)n(Cc3ccc(Oc4ccccc4)cc3)c2c1
Data returned: 0 to 25%

Data request: Identify the reported inhibition at 1 µM for the following entry. N=C(N)c1ccc2cc(C(=O)N3CCC(F)(F)C3)n(Cc3cccc(C(N)=O)c3)c2c1
Data returned: 0 to 25%

Data request: Dear colleague, please send me the reported inhibition at 1 µM for N=C(N)c1ccc2cc(C(=O)NC3CCC(F)(F)CC3)n(Cc3ccc(NC(=O)CCN)cc3)c2c1 when you can.
Data returned: 0 to 25%

Data request: Read the entry CN(CC1CCCCC1)C(=O)c1cc2ccc(C(=N)N)cc2n1Cc1ccc(C(N)=O)cc1 and write its reported inhibition at 1 µM.
Data returned: 0 to 25%

Data request: Please report inhibition at 1 µM for the following molecule: CN(C)C(=O)c1ccc(Cn2c(C(=O)N3CCC(F)CC3)cc3ccc(C(=N)N)cc32)cc1
Data returned: 0 to 25%

Data request: Read the entry N=C(N)c1ccc2cc(C(=O)NC34CC5CC(CC(O)(C5)C3)C4)n(Cc3ccc(C(N)=O)cc3)c2c1 and write its reported inhibition at 1 µM.
Data returned: 0 to 25%

Data request: Please indicate inhibition at 1 µM recorded for CC(C)c1ccc(Cn2c(C(=O)N3CC[C@H](F)C3)cc3ccc(C(=N)N)cc32)cc1
Data returned: 0 to 25%

Data request: Consider the molecule N=C(N)c1ccc2cc(C(=O)N3CC[C@@H](N)C3)n(CCc3ccccc3)c2c1 and give its recorded inhibition at 1 µM.
Data returned: 25 to 50%

Data request: Respond only with inhibition at 1 µM recorded for CC(C)c1ccc(Cn2c(C(=O)N3CCC(F)(F)CC3)cc3ccc(C(=N)N)cc32)cc1
Data returned: 0 to 25%

Data request: Give reported inhibition at 1 µM value for COc1ccc(CCn2c(C(=O)N3CCC(CCN)CC3)cc3ccc(C(=N)N)cc32)cc1
Data returned: 25 to 50%
